Target: oestrone sulphatase (Homo sapiens, UniProt P08842)
Sequence (P08842 22-583): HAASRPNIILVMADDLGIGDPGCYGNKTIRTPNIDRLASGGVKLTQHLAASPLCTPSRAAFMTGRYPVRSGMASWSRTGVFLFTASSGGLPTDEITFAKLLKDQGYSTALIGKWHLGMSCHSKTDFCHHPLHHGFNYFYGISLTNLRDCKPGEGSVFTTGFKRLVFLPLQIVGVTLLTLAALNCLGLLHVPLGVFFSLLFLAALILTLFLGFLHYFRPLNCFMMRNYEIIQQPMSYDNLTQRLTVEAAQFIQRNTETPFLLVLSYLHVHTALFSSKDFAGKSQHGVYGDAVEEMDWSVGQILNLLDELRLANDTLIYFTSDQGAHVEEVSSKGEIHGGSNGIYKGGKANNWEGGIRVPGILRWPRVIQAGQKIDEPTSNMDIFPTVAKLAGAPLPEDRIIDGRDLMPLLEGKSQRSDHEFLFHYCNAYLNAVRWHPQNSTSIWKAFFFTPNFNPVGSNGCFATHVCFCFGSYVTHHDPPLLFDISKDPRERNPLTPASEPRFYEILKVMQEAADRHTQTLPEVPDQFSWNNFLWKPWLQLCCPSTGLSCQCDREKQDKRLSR
Conditions: concentration tested 25 mM (so in the source)
% Inhibition (Mean) Placental Microsomes vs 50%: less than gives Met; not less than gives Not met.

C=CCc1c(OS(N)(=O)=O)ccc2c1CC[C@@H]1[C@@H]2CC[C@]2(C)C(=O)CC[C@@H]12 [4-allyl EMATE]; Not met
CCCc1c(OS(N)(=O)=O)ccc2c1CC[C@@H]1[C@@H]2CC[C@]2(C)C(=O)CC[C@@H]12 [4-n-propyl EMATE]; Met
C[C@@]12CCC[C@H]1[C@@H]1CCc3cc(OS(N)(=O)=O)ccc3[C@H]1CC2 [NOMATE, 17-deoxy oestrone-3-O-sulphamate]; Not met
C=CCc1cc2c(cc1OS(N)(=O)=O)CC[C@@H]1[C@@H]2CC[C@]2(C)C(=O)CC[C@@H]12 [2-allyl EMATE]; Not met

Shift focus to the following entry.
[in] Find out if reported % Inhibition (Mean) Placental Microsomes for CCCc1cc2c(cc1OS(N)(=O)=O)CC[C@@H]1[C@@H]2CC[C@]2(C)C(=O)CC[C@@H]12 [2-n-propyl EMATE] is less than 50%
[out] Met

Reference source: patent US7098199B2
